Listed below: pIC50 values for each entry.
target: HDAC2 (Homo sapiens); assay: HDAC-Glo inhibitor testing with recombinant HDAC2
Sequence (Q92769 whole entry): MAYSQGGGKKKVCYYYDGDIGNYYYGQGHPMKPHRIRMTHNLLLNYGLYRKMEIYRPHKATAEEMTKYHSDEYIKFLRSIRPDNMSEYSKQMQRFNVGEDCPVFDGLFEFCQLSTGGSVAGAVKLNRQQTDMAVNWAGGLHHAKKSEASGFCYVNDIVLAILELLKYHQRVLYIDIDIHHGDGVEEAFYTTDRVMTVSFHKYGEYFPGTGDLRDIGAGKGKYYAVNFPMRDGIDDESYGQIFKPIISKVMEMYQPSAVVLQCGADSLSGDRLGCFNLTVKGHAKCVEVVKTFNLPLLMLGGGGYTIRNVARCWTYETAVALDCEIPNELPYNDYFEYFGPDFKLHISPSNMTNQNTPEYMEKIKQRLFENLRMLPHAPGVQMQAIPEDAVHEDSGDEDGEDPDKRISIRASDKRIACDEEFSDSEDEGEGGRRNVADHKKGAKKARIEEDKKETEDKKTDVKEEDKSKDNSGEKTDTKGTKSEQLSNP
pIC50: −log10 of the molar value.

For orientation, consider the following solved cases.
[[record]]
record_smiles = "Cn1ccnc1C(=O)/C=C/c1ccc(CC(=O)Nc2ccc(Br)cc2)cc1"
result = "< 4.00"

[[record]]
record_smiles = "C#Cc1ccc(NC(=O)Cc2ccc(/C=C/C(=O)c3nccn3C)cc2)cc1"
result = "< 4.00"


Proceeding to the next molecule to report its pIC50.
Query: pIC50 lookup needed for "Cn1ccnc1C(=O)/C=C/c1ccc(CC(=O)Nc2c(F)c(F)c(F)c(F)c2F)cc1" , thanks.
Reply: 5.05
